measured-target: T1, human melanocortin 3 receptor (human, UniProt P41968 1-323)
T1 construct: whole, on cells; also called hMC3-R; MC3-R
T1 sequence (P41968 whole entry): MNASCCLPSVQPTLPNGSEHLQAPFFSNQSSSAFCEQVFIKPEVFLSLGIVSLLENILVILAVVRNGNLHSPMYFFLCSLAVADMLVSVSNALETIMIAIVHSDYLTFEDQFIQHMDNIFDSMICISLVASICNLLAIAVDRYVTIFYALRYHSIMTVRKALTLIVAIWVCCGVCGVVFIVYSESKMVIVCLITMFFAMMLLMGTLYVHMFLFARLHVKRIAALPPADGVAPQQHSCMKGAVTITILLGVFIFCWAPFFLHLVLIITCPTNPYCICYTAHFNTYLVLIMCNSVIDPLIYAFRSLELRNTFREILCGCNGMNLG
assay-notes: radioligand competition, [I125]-NDP-α-MSH, hMC3-R membranes
Positions of bridges follow the written chain, without caps; N, C: chain ends. Non-standard residues stand in square brackets, D forms with d. 2Nal = N[C@@H](Cc1ccc2ccccc2c1)C(=O)O; d2Nal = N[C@H](Cc1ccc2ccccc2c1)C(=O)O
recorded-endpoint: Ki (nM)
Give the quantity in nM, number only.

Reported Ki for Ac-DW[d2Nal]R[2Nal]K-NHMe (lactam 1-6, also called Compound No. 35) [Ac-cyclo(Asp-Trp-D-Nal 2-Arg-Nal 2-Lys)-NH-CH3] : what is it?
3
